Provide the recorded melting point for the entries that follow.

These solved cases illustrate the format of a correct answer.
>>> print(df.to_string())
                                 smilestext          value
0  CC(C)(C)C(=O)Oc1ccc(S(=O)(=O)n2nc(C#N)c3cccnc32)cc1  166 to 169 °C
1  CC(C)(C)C(=O)Oc1ccc(S(=O)(=O)n2nc(C#N)c3ccccc32)cc1  155 to 158 °C
2  CCOC(=O)c1nn(S(=O)(=O)c2ccc(OC(=O)C(C)(C)C)cc2)c2ccc([N+](=O)[O-])cc12  185 to 188 °C
3  CC(C)(C)C(=O)Oc1ccc(S(=O)(=O)n2cc(-c3ccccc3)c(=O)o2)cc1  166 to 168 °C
4  CCOC(=O)c1cn(S(=O)(=O)c2ccc(OC(=O)C(C)(C)C)cc2)c2ccc([N+](=O)[O-])cc12  170 to 173 °C
5  CCOC(=O)c1nn(C)c2ccc(NS(=O)(=O)c3ccc(OC(=O)C(C)(C)C)cc3)cc12  130 to 133 °C
6  CCOC(=O)c1nn(C(=O)c2cccc(C)c2)c2ccc(NS(=O)(=O)c3ccc(OC(=O)C(C)(C)C)cc3)cc12  180 to 182 °C
7  CC(C)(C)C(=O)Oc1ccc(S(=O)(=O)n2nc(C3CC3)c(=O)c3ccccc32)cc1  121 to 123 °C

Field: melting point. Fill in for each record below.
1. CCOC(=O)c1nn(S(=O)(=O)c2ccc(OC(=O)C(C)(C)C)cc2)c2ccccc12
2. Cc1noc(-c2cn(S(=O)(=O)c3ccc(OC(=O)C(C)(C)C)cc3)c3ncccc23)n1
3. CC(C)(C)C(=O)Oc1ccc(S(=O)(=O)n2cc(C#N)c3cccnc32)cc1

["132 to 135 °C", "164 to 167 °C", "176 to 179 °C"]

Field: melting point. Fill in for each record below.
1. CC(C)(C)C(=O)Oc1ccc(S(=O)(=O)n2nc(C(F)(F)F)c3cccnc32)cc1
2. CCOC(=O)c1cn(S(=O)(=O)c2ccc(OC(=O)C(C)(C)C)cc2)c2ccccc12

1. 135 to 138 °C
2. 118 to 121 °C

Field: melting point. Fill in for each record below.
1. CC(C)(C)C(=O)Oc1ccc(S(=O)(=O)n2nc(C#N)c3cc([N+](=O)[O-])ccc32)cc1
2. CCOC(=O)c1cn(C(=O)c2cccc(C)c2)c2ccc(NS(=O)(=O)c3ccc(OC(=O)C(C)(C)C)cc3)cc12
3. CC(C)(C)C(=O)Oc1ccc(S(=O)(=O)n2ncc(=O)c3ccccc32)cc1
4. CC(C)(C)C(=O)Oc1ccc(S(=O)(=O)n2cc(C#N)c3ccccc32)cc1
5. Cn1nc(C#N)c2cc(NS(=O)(=O)c3ccc(OC(=O)C(C)(C)C)cc3)ccc21

["183 to 186 °C", "172 to 175 °C", "116 to 119 °C", "133 to 136 °C", "162 to 165 °C"]

###

experiment: Spontaneous hydrolysis (chemical stability) in aqueous phosphate buffer; assay type: physicochemical; details: phosphate buffer, pH 7.3, 0.05 M phosphate buffer, pH 7.3, 25°C; read-out: t1/2 for the spontaneous hydrolysis (converted)
Provide the recorded half-life for the entries that follow.
Numbers only, in h.

Field: half-life. Fill in for each record below.
1. CC(C)(C)C(=O)Oc1ccc(S(=O)(=O)n2nc(C3CC3)c(=O)c3ccccc32)cc1
2. CC(C)(C)C(=O)Oc1ccc(S(=O)(=O)n2cc(C#N)c3cccnc32)cc1
3. CCOC(=O)c1cn(C(=O)c2cccc(C)c2)c2ccc(NS(=O)(=O)c3ccc(OC(=O)C(C)(C)C)cc3)cc12
4. Cc1c(-c2ccccc2)c(=O)on1S(=O)(=O)c1ccc(OC(=O)C(C)(C)C)cc1 [G, reference compound]

1: 1.9; 2: 1.8; 3: 5.3; 4: 5.8

Field: half-life. Fill in for each record below.
1. CC(C)(C)C(=O)Oc1ccc(S(=O)(=O)n2nc(C#N)c3cccnc32)cc1
2. Cc1cccc(C(=O)Nc2nn(S(=O)(=O)c3ccc(OC(=O)C(C)(C)C)cc3)c3ccccc23)c1
3. CC(C)(C)C(=O)Oc1ccc(S(=O)(=O)n2nc(C#N)c3ccccc32)cc1
4. CCOC(=O)c1nn(C(=O)c2cccc(C)c2)c2ccc(NS(=O)(=O)c3ccc(OC(=O)C(C)(C)C)cc3)cc12
5. CC(C)(C)C(=O)Oc1ccc(S(=O)(=O)n2nc(C(F)(F)F)c3cccnc32)cc1
6. Cc1noc(-c2cn(S(=O)(=O)c3ccc(OC(=O)C(C)(C)C)cc3)c3ncccc23)n1
7. CCOC(=O)c1cn(C)c2ccc(NS(=O)(=O)c3ccc(OC(=O)C(C)(C)C)cc3)cc12

1. 3.5
2. 6.4
3. 6.1
4. 5.8
5. 1.3
6. 2.5
7. 6.8

Field: half-life. Fill in for each record below.
1. CCOC(=O)c1nn(S(=O)(=O)c2ccc(OC(=O)C(C)(C)C)cc2)c2ccc([N+](=O)[O-])cc12
2. Cn1nc(C#N)c2cc(NS(=O)(=O)c3ccc(OC(=O)C(C)(C)C)cc3)ccc21
3. CCOC(=O)c1cn(S(=O)(=O)c2ccc(OC(=O)C(C)(C)C)cc2)c2ccc([N+](=O)[O-])cc12
4. CC(C)(C)C(=O)Oc1ccc(S(=O)(=O)n2ncc(=O)c3ccccc32)cc1

1. 1.8
2. 1.5
3. 6.1
4. 2.1

Recorded result, CC(C)(C)C(=O)Oc1ccc(S(=O)(=O)n2nc(C#N)c3cc([N+](=O)[O-])ccc32)cc1 , half-life: 0.4
